IC50 by entry:
- TARGET OR TEST SYSTEM: G-protein coupled receptor 55 (Homo sapiens, UniProt Q9Y2T6)
- Sequence (Q9Y2T6 whole entry): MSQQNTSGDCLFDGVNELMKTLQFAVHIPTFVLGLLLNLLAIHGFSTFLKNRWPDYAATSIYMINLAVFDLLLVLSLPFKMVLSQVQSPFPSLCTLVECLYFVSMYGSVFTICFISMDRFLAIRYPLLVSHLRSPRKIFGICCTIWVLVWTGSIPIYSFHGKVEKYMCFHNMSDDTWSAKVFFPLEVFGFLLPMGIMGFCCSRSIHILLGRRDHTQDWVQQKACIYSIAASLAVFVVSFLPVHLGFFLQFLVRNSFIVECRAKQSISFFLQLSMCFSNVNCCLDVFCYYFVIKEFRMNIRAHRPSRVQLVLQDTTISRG
- TEST PROTOCOL: inhibition of LPI-stimulated GPR55 beta-arrestin translocation – imaging, U2OS, beta-arrestin-GFP, LPI agonist, primary screen (AID 2013);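 also: antagonist potency measured as reduced agonist-driven arrestin aggregation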
- Assay type: functional
Activity calls are given as the source filed them.

| STRUCTURE NOTATION | IC50 |
| --- | --- |
| CNC(=O)c1ccc(NC(=O)CC23CC4CC(CC(C4)C2)C3)cc1 | 3.14 µM (active) |
| COc1cc(NS(=O)(=O)c2ccc(Nc3nc(-c4ccccc4)cs3)cc2)nc(OC)n1 | 4.49 µM (active) |
| Cc1n[nH]c(-c2ccc(O)c(C)c2O)c1Oc1ccccc1 | 1.9 µM (active) |
| CC(C)(C)OC(=O)[C@H](Cc1ccccc1)NC(=O)c1[nH]cnc1C(=O)NC1CCN(C(=O)OC(C)(C)C)CC1 | 5.3 µM (active) |

---

- TARGET OR TEST SYSTEM: FAD-linked sulfhydryl oxidase ALR (Homo sapiens)
- Sequence (P55789 whole entry): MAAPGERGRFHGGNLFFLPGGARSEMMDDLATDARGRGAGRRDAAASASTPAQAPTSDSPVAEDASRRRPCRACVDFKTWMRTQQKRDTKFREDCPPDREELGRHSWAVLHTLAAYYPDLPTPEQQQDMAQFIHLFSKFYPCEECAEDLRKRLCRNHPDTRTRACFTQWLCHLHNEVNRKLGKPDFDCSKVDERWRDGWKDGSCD
- TEST PROTOCOL: ALR-catalysed DTT oxidation blockers – biochemical, H2O2 detection, luminescence, cherry-pick, dose response (AID 493248)
Active and inactive are the calls of the source.
METRIC NAME: AC50

| MOLECULE | METRIC NAME | MEASURED RESULT |
| --- | --- | --- |
| COc1cc(/C=N/NC(=O)c2cc(-c3c(C)nn(-c4ccccc4)c3C)[nH]n2)ccc1O | AC50 | 105 nM (active) |
| O=C(c1cccc(F)c1)N1CCN=C1SCc1cccnc1 | AC50 | 123 nM (active) |
| Oc1ccc(Br)cc1-c1nc2cnccn2c1NC1CCCC1 | AC50 | 1550 nM (active) |
| Cc1cc(C(=O)C(=O)O)c(C)n1-c1ccc(Cl)c(Cl)c1 | AC50 | 1390 nM (active) |
| Cn1c(S)nnc1-c1sc2ccccc2c1Cl | AC50 | 12000 nM (active) |
| Nc1ccccc1Sc1c[nH]c2ccccc12 | AC50 | 24500 nM (active) |
| CC(=O)Nc1ccc(NC2CCCCC2NS(=O)(=O)c2ccccc2)cc1 (centres undefined) | AC50 | 736 nM (active) |
| O=C(c1ccccc1F)N1CCN=C1SCc1cccnc1 | AC50 | 552 nM (active) |
| Cc1nc2ccccc2c(=O)n1CCc1ccc(O)cc1 | AC50 | 3660 nM (active) |
| COc1cc(/N=C/c2c(CO)cnc(C)c2O)cc(OC)c1OC | AC50 | 3630 nM (active) |
| COc1ccc(S(=O)(=O)NC2=NC(=O)/C(=C/c3ccco3)S2)cc1 | AC50 | 14600 nM (active) |
| CCN(CC)c1ccc(/C=C/c2cccc[n+]2C)c(OC)c1 | AC50 | 452 nM (active) |
| Cc1ccccc1NCCC(=O)Nc1ccc(Cl)cc1 | AC50 | 4880 nM (active) |
| C(=N\Nc1nc2ccccc2[nH]1)/c1c[nH]c2ccccc12 | AC50 | 309 nM (active) |

---

- TEST PROTOCOL: loss of viability in HepG2 cells – cell-based, CellTiter-Glo, cherry-picked, cytotoxicity control for Shn3 inhibitor project, dose response (AID 624134)
- Assay type: functional
Calls of active or inactive are those of the source.
AC50 by entry:
METRIC NAME: AC50

| STRUCTURE NOTATION | MEASURED RESULT |
| --- | --- |
| COc1ccccc1-c1c(C(F)(F)F)n[nH]c1-c1ccc(O)cc1O | > 70 µM (inactive) |
| Cc1nc2nc(C)n(CCN3CCOCC3)c(=O)c2c(-c2cccc([N+](=O)[O-])c2)c1C(=O)CCCCCCCCCCN1CCC(c2ccccc2)(c2ccccc2)CC1 | 14.7 µM (active) |
| O=C(NCc1ccccc1)c1nc(S(=O)(=O)Cc2ccccc2)ncc1Cl | 20.4 µM (active) |
| CCCCc1ccc(NC(=O)C(=O)NCCN2CCN(Cc3ccc([N+](=O)[O-])cc3)CC2)cc1 | 64.2 µM (active) |
| Cc1ccc(C(=O)Nc2cccc3[nH]c(C(F)(F)F)nc23)cc1 | 33.6 µM (active) |

---

- TARGET OR TEST SYSTEM: Cytochrome P450 2C19 (Homo sapiens)
- Sequence (P33261 whole entry): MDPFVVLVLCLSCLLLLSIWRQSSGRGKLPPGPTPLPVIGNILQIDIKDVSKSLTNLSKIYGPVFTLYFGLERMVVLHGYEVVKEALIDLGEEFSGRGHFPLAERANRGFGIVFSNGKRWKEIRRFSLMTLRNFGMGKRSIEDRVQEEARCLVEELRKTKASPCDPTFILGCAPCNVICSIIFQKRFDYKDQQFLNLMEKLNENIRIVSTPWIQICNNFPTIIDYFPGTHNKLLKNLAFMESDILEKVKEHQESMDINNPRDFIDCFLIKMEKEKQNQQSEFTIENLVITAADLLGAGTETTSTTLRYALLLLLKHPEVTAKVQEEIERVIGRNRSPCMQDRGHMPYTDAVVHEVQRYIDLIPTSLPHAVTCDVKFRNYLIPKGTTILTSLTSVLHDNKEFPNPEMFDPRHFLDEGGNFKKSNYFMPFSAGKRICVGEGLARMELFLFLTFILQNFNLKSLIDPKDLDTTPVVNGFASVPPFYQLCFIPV
- TEST PROTOCOL: Cytochrome panel assay with activity outcomes. Panel member name: p450-cyp2c19 Compounds with AC50 equal or less than 10 uM are considered active
- Assay type: functional
- CONDITION LABEL: read-out: AC50
METRIC NAME: AC50

| COMPOUND | TARGET OR TEST SYSTEM | MEASURED RESULT |
| --- | --- | --- |
| Cc1cc(NC(=O)c2cccc(F)c2)no1 | Cytochrome P450 2C19 (Homo sapiens) | 31.6 µM (inconclusive) |
| FC(F)(F)c1n[nH]c(SCc2ccc(Cl)cc2)n1 | Cytochrome P450 2C19 (Homo sapiens) | 2.51 µM (inconclusive) |
| COCCNc1ncnc2ccc(-c3ccc(N(C)C)cc3)cc12 | Cytochrome P450 2C19 (Homo sapiens) | 25.1 µM (inconclusive) |
| Cc1cc2c(C(F)(F)F)cc(=O)oc2c2c1NCCC2 | Cytochrome P450 2C19 (Homo sapiens) | 1.26 µM (inconclusive) |
| Cc1cccc(CNc2ncncc2-c2ccc(C(=O)N(C)C)cc2)c1 | Cytochrome P450 2C19 (Homo sapiens) | 31.6 µM (inconclusive) |
| COCCn1c(=O)c(-c2cccs2)nc2cncnc21 | Cytochrome P450 2C19 (Homo sapiens) | 25.1 µM (inconclusive) |
| CCCCCCN(CCCCCC)C(=O)Cc1c(-c2ccc(Cl)cc2)[nH]c2ccc(Cl)cc12 | Cytochrome P450 2C19 (Homo sapiens) | 10 µM (inconclusive) |
| Clc1ccc(-c2nc3ncccn3c2Nc2ccc3c(c2)OCCO3)cc1 | Cytochrome P450 2C19 (Homo sapiens) | 7.08 µM (inconclusive) |
| CCC(=O)Nc1ccc2c(c1)C(=O)c1ccccc1C2=O | Cytochrome P450 2C19 (Homo sapiens) | 7.94 µM (inconclusive) |
| O=[N+]([O-])c1cccnc1N1CCCCC1 | Cytochrome P450 2C19 (Homo sapiens) | 0.00562 µM (inconclusive) |
| CCc1cccc2nc3c(c([Si](C)(C)C)c12)Cn1c-3cccc1=O | Cytochrome P450 2C19 (Homo sapiens) | 39.8 µM (inconclusive) |
| Cc1cccc(-n2c(S)nnc2Cn2nc(C)c([N+](=O)[O-])c2C)c1 | Cytochrome P450 2C19 (Homo sapiens) | 20 µM (inconclusive) |
| CCOc1ccc(N2C(=O)CN=C2Nc2ccccc2Cl)cc1 | Cytochrome P450 2C19 (Homo sapiens) | 11.2 µM (inconclusive) |
| c1ccc(CCc2nc(-c3ccccc3)no2)cc1 | Cytochrome P450 2C19 (Homo sapiens) | 0.501 µM (inconclusive) |
| Cc1ccc(N(C(=O)C(F)(F)F)C(C(=O)NC2CCCCC2)c2cccs2)cc1C (stereo not given) | Cytochrome P450 2C19 (Homo sapiens) | 0.0355 µM (inconclusive) |

---

- TARGET OR TEST SYSTEM: Cytochrome P450 2C19 (Homo sapiens)
- TEST PROTOCOL: Cytochrome panel assay with activity outcomes. Panel member name: p450-cyp2c19 Compounds with AC50 equal or less than 10 uM are considered active
- Assay type: functional
- CONDITION LABEL: read-out: AC50
AC50 by entry:
METRIC NAME: AC50

| COMPOUND | MEASURED RESULT |
| --- | --- |
| CCNC(=S)NNC(=O)c1cc(CC(C)C)nc2ccccc12 | 0.178 µM (inconclusive) |
| CCNc1ncc2nc(CCc3ccccc3)c(=O)n(C[C@H]3CCCO3)c2n1 | 39.8 µM (inconclusive) |
| CC(C)(C)c1ccc(C(=O)NCCC(=O)NCc2ccco2)cc1 | 7.94 µM (inconclusive) |
| CC(C)n1c(N2CCN(C(=O)Nc3ccccc3)CC2)nc2ccccc21 | 22.4 µM (inconclusive) |
| COc1cccc([C@@H]2Oc3ccc(OC)cc3/C(=N/O[C@@H](C)CN3CCCCc4nc(C)c(C)cc43)[C@@H]2O)c1 | 0.0126 µM (inconclusive) |
| CCOC(=O)C1=NOC(CNC(=O)C2=NOC(CNC(=O)c3c(-c4ccccc4Cl)noc3C)C2)C1 (stereo not given) | 20 µM (inconclusive) |
| CCCNC1=NC(=O)N(C)C(=O)/C1=N/O | 28.2 µM (inconclusive) |
| Cc1oncc1C(=O)Nc1ccc(C(F)(F)F)cc1 [LEFLUNOMIDE] | 15.8 µM (inconclusive) |
| O=C(Nc1nc2ccc(F)cc2s1)C1CCCO1 (stereo not given) | 25.1 µM (inconclusive) |
| COc1ccccc1CNC(=O)C1CCN(S(=O)(=O)N2CC(C)CC(C)C2)CC1 (stereo not given) | 39.8 µM (inconclusive) |
